Assay: inhibitors of HIV fusion peptide binding, primary screen, biochemical, uHTS, fluorescence dequenching (AID 1986)
Settings: cell-free peptide binding, 30 min, at 20 µM, active compounds read high
Screen size: about 290,000 compounds; about 890 (0.31%) were called active. Shown is part of a subset that was picked to be rich in actives.
Classify as follows. Reported inhibition greater than or equal to 50%: satisfied. Reported inhibition below: not satisfied.

Exercise: Could you tell me if the measured inhibition of "COC(=O)Cn1cc(/C=C/c2cc[n+](C)cc2)c2ccccc21" reaches 50% or more?
Key: satisfied

Exercise: Could you tell me if the measured inhibition of "CN1CCN(c2ccc(NC(=O)CSc3nnnn3-c3ccccc3F)cc2)CC1" reaches 50% or more?
Key: not satisfied

Exercise: Could you tell me if the measured inhibition of "C=CCn1cc(/C=C/c2cc[n+](C)cc2)c2ccccc21" reaches 50% or more?
Key: satisfied

Exercise: Could you tell me if the measured inhibition of "O=C(/C=C\c1ccco1)c1ccc(NC(=O)c2ccco2)cc1" reaches 50% or more?
Key: satisfied

Exercise: Could you tell me if the measured inhibition of "CC(C)C(=O)NNC(=O)c1csc(-c2cccs2)n1" reaches 50% or more?
Key: not satisfied

Exercise: Could you tell me if the measured inhibition of "CC(=O)Nc1ccc(C(=O)/C=C/c2ccco2)cc1" reaches 50% or more?
Key: not satisfied

Exercise: Could you tell me if the measured inhibition of "CCCCCCCCCCCCCCCC[n+]1ccc(C(N)=O)cc1" reaches 50% or more?
Key: not satisfied

Exercise: Could you tell me if the measured inhibition of "COc1ccc(Nc2ccccc2C(=O)O)cc1" reaches 50% or more?
Key: not satisfied

Exercise: Could you tell me if the measured inhibition of "CCn1cc(/C=C/c2cc[n+](C)cc2)c2ccccc21" reaches 50% or more?
Key: satisfied

Exercise: Could you tell me if the measured inhibition of "CCNc1cc(=O)n(C)c(=O)n1C" reaches 50% or more?
Key: not satisfied

Exercise: Could you tell me if the measured inhibition of "N/C(=N\NC(=O)c1cccs1)c1cc2cc(Cl)ccc2oc1=O" reaches 50% or more?
Key: not satisfied

Exercise: Could you tell me if the measured inhibition of "NC(=O)c1cc2ccccc2o/c1=N\NC(=O)c1ccncc1" reaches 50% or more?
Key: not satisfied

Exercise: Could you tell me if the measured inhibition of "COc1ccc(NC(=O)/C(C#N)=C\c2ccc(N3CCOCC3)o2)cc1" reaches 50% or more?
Key: satisfied

Exercise: Could you tell me if the measured inhibition of "O=C(O)c1ccccc1Nc1ccccc1C(=O)O" reaches 50% or more?
Key: not satisfied

Exercise: Could you tell me if the measured inhibition of O=C(O)/C=C/C(=O)N(CC1CCCO1)C1CC(=O)N(c2c(Cl)cccc2Cl)C1=O (centres undefined) reaches 50% or more?
Key: not satisfied

Exercise: Could you tell me if the measured inhibition of "COC(=O)Cn1c(C)c(/C=C/c2cc[n+](C)cc2)c2ccccc21" reaches 50% or more?
Key: not satisfied

Exercise: Could you tell me if the measured inhibition of "COCCNC(=O)/C(C#N)=C/c1ccc(N2CCOCC2)o1" reaches 50% or more?
Key: not satisfied

Exercise: Could you tell me if the measured inhibition of "Cn1nc(CC(=O)Nc2cccnc2N2CCOCC2)c2ccccc2c1=O" reaches 50% or more?
Key: not satisfied

Exercise: Could you tell me if the measured inhibition of "N#C/C(=C\c1ccc(N2CCOCC2)o1)C(=O)NCCc1ccccc1" reaches 50% or more?
Key: satisfied

Exercise: Could you tell me if the measured inhibition of "COc1cc(-c2ccc(Nc3ccccc3C(=O)O)c(OC)c2)ccc1Nc1ccccc1C(=O)O" reaches 50% or more?
Key: satisfied

Exercise: Could you tell me if the measured inhibition of N#C/C(=C\c1ccc(N2CCOCC2)o1)C(=O)NCC1CCCO1 (centres undefined) reaches 50% or more?
Key: satisfied

Exercise: Could you tell me if the measured inhibition of "Cc1cccc(C)c1OCc1cc(C(=O)NCc2ccc(Cl)s2)no1" reaches 50% or more?
Key: not satisfied

Exercise: Could you tell me if the measured inhibition of "Cc1ccc2c(c1)c(/C=C/c1cc[n+](C)cc1)c(C)n2C" reaches 50% or more?
Key: satisfied

Exercise: Could you tell me if the measured inhibition of "CCN(CC)c1ccc2cc(C(N)=O)c(=N)oc2c1" reaches 50% or more?
Key: satisfied
